These data points were gathered from PubChem BioAssay AID1264.

Listed next: entries and their corresponding inhibition.
- experimental_system: Serine/threonine-protein kinase PLK1 (Homo sapiens) (UniProt P53350)
- Sequence (P53350 whole entry, looked up): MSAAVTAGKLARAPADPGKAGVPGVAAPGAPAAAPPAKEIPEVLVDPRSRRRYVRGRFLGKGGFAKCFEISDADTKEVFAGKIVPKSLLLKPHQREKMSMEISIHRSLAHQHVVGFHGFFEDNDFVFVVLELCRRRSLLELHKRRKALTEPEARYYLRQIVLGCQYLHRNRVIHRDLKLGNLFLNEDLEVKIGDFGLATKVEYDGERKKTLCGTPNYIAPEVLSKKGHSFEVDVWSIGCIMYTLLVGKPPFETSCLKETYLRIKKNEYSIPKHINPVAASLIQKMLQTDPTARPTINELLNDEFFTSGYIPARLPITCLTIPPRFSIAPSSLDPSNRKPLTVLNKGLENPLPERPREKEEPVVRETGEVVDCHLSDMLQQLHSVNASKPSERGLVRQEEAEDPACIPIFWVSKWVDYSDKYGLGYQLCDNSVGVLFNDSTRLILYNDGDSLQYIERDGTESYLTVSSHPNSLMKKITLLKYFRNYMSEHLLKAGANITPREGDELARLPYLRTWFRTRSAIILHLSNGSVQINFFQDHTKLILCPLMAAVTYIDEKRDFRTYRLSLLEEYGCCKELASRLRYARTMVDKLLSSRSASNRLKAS
- assay_protocol: PLK1 kinase activity inhibitors, confirmation, biochemical, analogue series, repeat of primary screen (AID 1264)
- measurement_conditions: recombinant PLK1 kinase, TR-FRET phosphopeptide binding; at 10 µM; hits give high values
Respond with the bare value in %.

Query :: For the compound CC1=CC(c2ccccc2)n2ncnc2N1 (stereo unspecified) , give its reported inhibition.
Result :: 26

Query :: For the compound `CCCCOC(=O)c1ccc(NC(=O)c2ccc(F)cc2F)cc1` , give its reported inhibition.
Result :: -1.8

Query :: For the compound `O=C(NCCc1nc(-c2ccccc2Cl)no1)c1ccccc1` , give its reported inhibition.
Result :: -12.8

Query :: For the compound Cc1cc(C)c(C2=CC(c3ccccc3)n3ncnc3N2)cc1C (stereo unspecified) , give its reported inhibition.
Result :: -3.17

Query :: For the compound `CCCCOC(=O)c1ccc(NC(=O)c2c(O)[nH]c(=O)[nH]c2=O)cc1` , give its reported inhibition.
Result :: 13.1

Query :: For the compound `CCOC(=O)c1ccc(NC(=O)c2c(N)n(Cc3ccccc3)c(=O)[nH]c2=O)cc1` , give its reported inhibition.
Result :: -23.9

---

- experimental_system: Serine/threonine-protein kinase PLK1 (Homo sapiens)
- assay_protocol: PLK1 kinase activity inhibitors, confirmation, biochemical, analogue series, repeat of primary screen (AID 1264)
- measurement_conditions: recombinant PLK1 kinase, TR-FRET phosphopeptide binding; at 10 µM; hits give high values
The source made the active and inactive calls.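 The calls were made as follows: active = every replicate of triplicate confirmation testing shows 50% or greater inhibition; inconclusive = one or more replicate tests show below 50% inhibition; inactive = every triplicate test shows below 50% inhibition.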
measured_metric: inhibition

Below are worked cases with known answers.
{"compound": "CCOC(=O)c1ccccc1NC(=O)c1c(N)n(C)c(=O)[nH]c1=O", "value_measured": "-3.12% (inactive)"}
{"compound": "CC(C)C(=O)NCCc1nc(-c2ccccc2Cl)no1", "value_measured": "-5.05% (inactive)"}
{"compound": "O=C(Nc1ccccc1)c1c(O)[nH]c(=O)[nH]c1=O", "value_measured": "0.179% (inactive)"}
{"compound": "CCOc1ccc(C2=CC(c3ccccc3)n3ncnc3N2)cc1 (centres undefined)", "value_measured": "-6.38% (inactive)"}
{"compound": "CCC(=O)NCCc1nc(-c2ccccc2)no1", "value_measured": "-12.8% (inactive)"}

Query :: For the compound `CCOC(=O)CCCCCNC(=O)c1c(O)[nH]c(=O)[nH]c1=O` , give its reported inhibition.
Result :: -9.36% (inactive)

Query :: For the compound `Cc1cc(=O)n2[nH]cnc2n1` , give its reported inhibition.
Result :: 19.1% (inactive)

Query :: For the compound `CC(=O)NCCc1nc(-c2ccc(Cl)cc2)no1` , give its reported inhibition.
Result :: 0.952% (inactive)

Query :: For the compound CCC1=CC(c2ccccc2)n2ncnc2N1 (centres undefined) , give its reported inhibition.
Result :: 27.4% (inactive)

Query :: For the compound FC(F)(F)c1ccccc1C1=CC(c2ccccc2)n2ncnc2N1 (centres undefined) , give its reported inhibition.
Result :: -2.08% (inactive)

Query :: For the compound `C/C(=N\NC(=O)c1ccncc1)c1c(O)[nH]c(=O)[nH]c1=O` , give its reported inhibition.
Result :: -1.95% (inactive)

Query :: For the compound `CCOC(=O)c1ccc(NC(=O)c2ccc(F)cc2F)cc1` , give its reported inhibition.
Result :: 4.42% (inactive)

Query :: For the compound `CCOC(=O)c1ccccc1NC(=O)c1c(O)[nH]c(=O)[nH]c1=O` , give its reported inhibition.
Result :: -7.12% (inactive)

Query :: For the compound `CCOc1ccc(NC(=O)c2c(O)[nH]c(=O)[nH]c2=O)cc1` , give its reported inhibition.
Result :: 4.03% (inactive)

Query :: For the compound `CCOC(=O)c1ccc(NC(=O)c2c(O)[nH]c(=O)[nH]c2=O)cc1` , give its reported inhibition.
Result :: -4.9% (inactive)

Query :: For the compound `CCOC(=O)c1ccc(NC(=O)c2c(N)n(C)c(=O)[nH]c2=O)cc1` , give its reported inhibition.
Result :: -19.2% (inactive)

Query :: For the compound CC(C)(C)c1ccc(C2=CC(c3ccccc3)n3ncnc3N2)cc1 (centres undefined) , give its reported inhibition.
Result :: -7.88% (inactive)

Query :: For the compound CC(C)(C)c1ccc(C2=CC(c3ccccc3F)n3ncnc3N2)cc1 (centres undefined) , give its reported inhibition.
Result :: -3.46% (inactive)

Query :: For the compound CC1=CC(c2ccccc2)n2nc(N)nc2N1 (centres undefined) , give its reported inhibition.
Result :: -13.7% (inactive)

---

- experimental_system: Serine/threonine-protein kinase PLK1 (Homo sapiens) (UniProt P53350)
- assay_protocol: PLK1 kinase activity inhibitors, confirmation, biochemical, analogue series, repeat of primary screen (AID 1264)
- measurement_conditions: recombinant PLK1 kinase, TR-FRET phosphopeptide binding; at 10 µM; hits give high values
Listed next: entries and their corresponding inhibition.
Respond with the bare value in %.

Below are worked cases with known answers.
{"compound": "Cn1c(N)c(S(=O)(=O)NCc2ccccc2)c(=O)n(C)c1=O", "unit_text": "%", "inhibition": -15.5}
{"compound": "Cn1cccc1C1C=C(c2ccc(C(C)(C)C)cc2)Nc2ncnn21 (stereo unspecified)", "unit_text": "%", "inhibition": -5.07}
{"compound": "COc1ccc(C2C=C(c3ccccc3)Nc3ncnn32)cc1 (stereo unspecified)", "unit_text": "%", "inhibition": -8.01}
{"compound": "Cn1c(N)c(C(=O)Nc2ccccc2)c(=O)[nH]c1=O", "unit_text": "%", "inhibition": 8.78}
{"compound": "CCOC(=O)c1ccccc1NC(=O)c1c(O)[nH]c(=S)[nH]c1=O", "unit_text": "%", "inhibition": 19.1}

Shifting focus to the compound that follows.
Query :: For the compound `CCOC(=O)c1ccc(NC(=O)c2c(N)n(C)c(=O)n(C)c2=O)cc1` , give its reported inhibition.
Result :: -20.8

---

- experimental_system: Serine/threonine-protein kinase PLK1 (Homo sapiens) (UniProt P53350)
- assay_protocol: PLK1 kinase activity inhibitors, confirmation, biochemical, analogue series, repeat of primary screen (AID 1264)
- measurement_conditions: recombinant PLK1 kinase, TR-FRET phosphopeptide binding; at 10 µM; hits give high values
Listed next: entries and their corresponding inhibition.
Respond with the bare value in %.

Below are worked cases with known answers.
{"molecule": "O=C(NCCc1nc(-c2ccccc2Cl)no1)C1CCCCC1", "value_measured": -35.6}
{"molecule": "CCOC(=O)c1ccc(NC(=O)c2c(NCc3ccccc3)[nH]c(=O)[nH]c2=O)cc1", "value_measured": -44}
{"molecule": "Cc1ccc(C2=CC(c3ccccc3)n3ncnc3N2)c(C)c1 (centres undefined)", "value_measured": -6.91}

Query :: For the molecule `O=C(Nc1ccccc1)c1ccc(F)cc1F` , give its reported inhibition.
Result :: 24.9

Query :: For the molecule `C1=C(c2ccccc2)Nc2ncnn2C1` , give its reported inhibition.
Result :: 12.8

Query :: For the molecule `CCOC(=O)c1ccc(NS(=O)(=O)c2c(N)n(C)c(=O)n(C)c2=O)cc1` , give its reported inhibition.
Result :: -7.36

Query :: For the molecule `CCOC(=O)c1ccccc1NC(=O)c1ccc(F)cc1F` , give its reported inhibition.
Result :: -4.35

Query :: For the molecule `CCOC(=O)c1cccc(NC(=O)c2ccc(F)cc2F)c1` , give its reported inhibition.
Result :: -1.61

Query :: For the molecule `CCOC(=O)c1cccc(NC(=O)c2c(NCc3ccccc3)[nH]c(=O)[nH]c2=O)c1` , give its reported inhibition.
Result :: -25.1

Query :: For the molecule COc1ccc(C2C=C(C)Nc3ncnn32)cc1 (centres undefined) , give its reported inhibition.
Result :: 5.53

---

Listed next: entries and their corresponding inhibition.
- experimental_system: Serine/threonine-protein kinase PLK1 (Homo sapiens) (UniProt P53350)
- assay_protocol: PLK1 kinase activity inhibitors, confirmation, biochemical, analogue series, repeat of primary screen (AID 1264)
- measurement_conditions: recombinant PLK1 kinase, TR-FRET phosphopeptide binding; at 10 µM; hits give high values
Respond with the bare value in %.

Below are worked cases with known answers.
{"smiles_text": "CCOC(=O)c1cccc(NC(=O)c2c(N)n(C)c(=O)[nH]c2=O)c1", "experimental_system": "Serine/threonine-protein kinase PLK1 (Homo sapiens) (UniProt P53350)", "value_measured": -1.45}
{"smiles_text": "O=C(Nc1ccccc1)c1c(O)[nH]c(=S)[nH]c1=O", "experimental_system": "Serine/threonine-protein kinase PLK1 (Homo sapiens) (UniProt P53350)", "value_measured": 14.3}
{"smiles_text": "CCOc1ccc(NC(=O)c2c(N)n(C)c(=O)[nH]c2=O)cc1", "experimental_system": "Serine/threonine-protein kinase PLK1 (Homo sapiens) (UniProt P53350)", "value_measured": -9.99}

Query :: For the compound `CCCCOC(=O)c1ccc(NC(=O)c2c(N)n(C)c(=O)[nH]c2=O)cc1` , give its reported inhibition.
Result :: -5.01

Query :: For the compound `Cc1ccc(NC(=O)c2ccc(F)cc2F)cc1` , give its reported inhibition.
Result :: 0.531
